These measurements were taken from PubChem BioAssay.

Test: HepG2 cell viability effects, profiling panel, calcein-AM fluorescence, 48 h, basal (AID 1164); further: test concentration not given here
Settings: higher = more signal
Grouping by measured z-score is done with the following cut points: class 0 (below -0.4), class 1 (-0.4 to below 0.4), class 2 (0.4 or more)

The examples below pair each entry with its known result.
MOLECULE	CATEGORY
CCOC(=O)C1=CCC(c2ccco2)N(S(=O)(=O)c2ccc(C)cc2)C1 (centres undefined)	class 1
C=C(/C(=C/C[C@H](OC(=O)c1ccncc1)c1ccccc1OCCO)c1cnc2ccccc2c1)C(C)C	class 0
COCC(=C=CC[C@H](O)c1cccc(OCCO)c1)C[C@H](O)COCc1ccccc1	class 1

Exercise: Please indicate the class for `COCCCNC(=O)[C@@]1(Sc2ccc(C)cc2)CC(=O)N(Cc2ccccc2Cl)[C@@H]1c1ccc(CO)cc1I` based on its z-score.
Solution: class 1

Exercise: Also, `CC(=O)NCCCC[C@@H]1NC(=O)[C@@H]2C[C@H](C(=O)NCCCCCCN)[C@H](c3cccc(OCCO)c3)N2C1=O` please.
Solution: class 1

Exercise: Also, C=CCC(OC(C)=O)[C@@H]1[C@@H](N(Cc2ccc(-c3cccc(C(F)(F)F)c3)o2)C(=O)c2cccc3ccccc23)c2cc(OCCCO)ccc2N1C(=O)Cc1ccc(OC)cc1 (some centres undefined) please.
Solution: class 2

Exercise: Also, `COc1ccc([Si](C)(C)[C@@H]2[C@@H](CCn3cc([C@H](O)c4ccccc4)nn3)O[C@]3(C(=O)N(Cc4cccc(N5C(=O)c6cccc7cccc5c67)c4)c4ccccc43)[C@H]2C)cc1` please.
Solution: class 1

Exercise: Also, `CCOC(=O)C[C@H]1[C@H](OC(=O)c2cc3ccccc3oc2=O)[C@@H](NC(=O)c2ccc3ccccc3c2)c2cc(OCCCO)ccc2N1C(=O)Cc1ccc(OC)cc1` please.
Solution: class 0

Exercise: Also, `C=C[C@@H](C)[C@@H](OC(=O)Nc1ccc(SC)cc1)c1ccc(OCCO)cc1` please.
Solution: class 0
